Cited source for all entries: the DeepSol protein solubility set

# MEASUREMENT_DESCRIPTION: soluble on expression in E. coli; label from the status in PepcDB or PDB records
MEASUREMENT_LABEL: soluble on expression in E. coli

[[record]]
sequence = "MIEFRDVWFWYQEGKTVLKSISFSFSEGTLAIVGPNGSGKTTLVKMLNGLLKPKKGNVLIDGINTKEVSVAELSRIVGYVFQNPDAMFFEENVFKEVAFGPKNLGLNEEEVKKRVRWALEAVGLRGFENRNPFELSGGEKQRLAIACILAMKPKYLVLDEPNTGLDERGLQDLINVIKNLRREGSSIILVTHDIELVLEVADKVLLLKDGELKFFGSTKEFFELDLEGFGLKEPELVKISKDVGINFVRNVEELLKVIGL"
value_observed = "soluble"

[[record]]
sequence = "MAHHHHHHMGGFGSKNMEYYNYASMKLLERDKYTNEKEEEEDDQYCKETDIREAVKKAREIRNCNYKESMDLYIKALKMLKKLKENNSRIYRNVLEFEIRPQEIASSAPLNTSLEKNIHMKKEGETNYTCAPPNDNQAISLNNKIASLYNEIADLCCIHDFIEKSLFYYDKACSYNPSKIDYIYKKGVLFQQMNDTERAINTFKIILSAEPNHIPTLFSLGNLYRYIDNHIALSYFEAILKIEPNNTEVLSLIASCYDNLGKLNEAISYQNKAVQIDPDNFNHKKFAQRLIEMKSQN"
value_observed = "soluble"

[[record]]
sequence = "MGHHHHHHSHKVENFEAAVHFYGKAIELNPANAVYFCNRAAAYSKLGNYAGAVQDCERAICIDPAYSKAYGRMGLALSSLNKHVEAVAYYKKALELDPDNETYKSNLKIAELKLREAPSPTGGVGSFDIAGLLNNPGFMSMASNLMNNPQIQQLMSGMISGGNNPLGTPGTSPSQNDLASLIQAGQQFAQQMQQQNPELIEQLRSQIRSRTP"
value_observed = "not soluble"

[[record]]
sequence = "MGHHHHHHGGHMSLNISDVAKITGLTSKAIRFYEEKGLVTPPMRSENGYRTYTQQHLNELTLLRQARQVGFNLEESGELVNLFNDPQRHSADVKRRTLEKVAEIERHIEELQSMRDQLLALANACPGDDSADCPIIENLSGCCHHRAGEGGS"
value_observed = "soluble"

[[record]]
sequence = "MGHHHHHHSHVAEGQEPAEFWDLLGGKTPYANDKRLQQEILDVQSRLFECSNKTGQFVVTEITDFTQDDLNPTDVMLLDTWDQVFLWIGAEANATEKESALATAQQYLHTHPSGRDPDTPILIIKQGFEPPIFTGWFLAWDPNIWSAGKTYEQLKEELGDAAAIMRITADMKNATLSLNSNDSEPKYYPIAVLLKNQNQELPEDV"
value_observed = "soluble"

[[record]]
sequence = "MSRKRTENGSESGPATSHVPVDRFGFLKQEHANSPERFSKSKTTSSTDHDREERKVRKWRKMIGVGGSDWKHYVRRKPNVVRRRIRKGIPDCLRGLVWQLISGSRDLLLMNPGVYEQLVIYETSASELDIIRDISRTFPSHVFFQKRHGPGQRSLYNVLKAYSVYDRDVGYVQGMGFIAGLLLLYMSEEDAFWLLVALLKGAVHAPMEGLYHAGLPLVQQYLFQLESLVKELIPKLGEHFTQEMINPSMYASQWFITVFSYSFPFPLALRIWDVFLSEGVKIVFKVGLALLKYCQDELVSKVTV"
value_observed = "not soluble"

[[record]]
sequence = "MMKPSVSAAILAAGTSTRMNEMKQLAKIQGTYMLKYVIDQVSNHPFQHIFVIVGHQADIVMKMIQVEDKRVQWLVNDQYKQGQSTSFKLAMEQARQYGDAVMMFLADQPLIEKETVNIVLNEGITRVQEEPFIVRPMYEKKEGHPVYWGNIHALDCSAVNGDKGGKTLMEELERMLIPVHDQGVLVDVDTCEDYKKVNDLMKRKSPSTHLEHHHHHH"
value_observed = "not soluble"

[[record]]
sequence = "MGHHHHHHSHMLGSWPARTFHPGACVSRRPSAPWKHTASGKDSPDLRFSEHGVSQEFWAGGLVAVLEMTPSPSPWGTQEDPAGMCSLWVVGWCPCRGAGVRDLVLVHAGVWCKHVCAVQRDACGESRTPAPPRKGGAVTSVLCLFLIKTFPLFSYKFASCKQVHKDPPLVKSGFE"
value_observed = "soluble"

[[record]]
sequence = "MVGEGEIELRNELPGGEVHAAWHLRYAGHDFFVKCDEREMLRGFTAEADQLELLSRSKTVVVPKVWAVGSDRDYSFLVMDYLSPRPLDAHNAFILGQQLARLHQWSDQPQFGLDFDNALSTTPQPNTWQRRWSTFFAEQRIGWQLELAAEKGITFGNIDAIVEHVQQRLASHQPQPSLLHGDLWSANCALGPDGPYIFDPACYWGDRECDLAMLPLHTDQPPQIYDGYQSVSPLPLDFLDRQPIYQLYTLLNRARLFGGQHLATAQKAMDRLLAVLEHHHHHH"
value_observed = "not soluble"

[[record]]
sequence = "MGHHHHHHSHMSGTEEAILGGRDSHPAAGGGSVLCFGQCQYTAEEYQAIQKALRQRLGPEYISSRMAGGGQKVCYIEGHRVINLANEMFGYNGWAHSITQQNVDFVDLNNGKFYVGVCAFVRVQLKVRGWSRPAARKDQWVVGEGWFIS"
value_observed = "not soluble"

[[record]]
sequence = "MELQDLELQLEERLLGLEEQLRAVRMPSPFRSSALMGMCGSRSTDNLSCPSPLNVMEPVTELMQEQSYLKSELGLGLGEMGFEIPPGESSESVFSKQRSESSSICSGPSHANRRTGVPSTASVGKSKTPLVARKKVFRASVALTPTAPSRTGSVQTPPDLESSEEVDAAEGAPEVVGPKSESEVEEGHGKLPSMPAAEEMHKNVEQDELQQVIREIKESIVGEIRREIVSGLLAAVSSSKASNSKQDYHLEHHHHHH"
value_observed = "not soluble"

[[record]]
sequence = "SLSPRRLRLLLVDENPTARAVIGRRLSHRHYDVTVVEDGFAAQKTLIIQPSDIILIDMDLQLLPAIGTMEKIRAAHPAGHACIVMIGGASDTPKMIAALDAGADDHIVKPFDFDMLDARLRRVHARAEREG"
value_observed = "not soluble"

[[record]]
sequence = "MCSSETIVKLNVGGSVFETWKSTLTKQDGFFKTLVETNIPVKKDTSDCYFIDRSPKYFETVLNYMRSGVTVLPDSEKELQELKKEAEFYLLEQLVDLCEPINNQIRTYRSSHELLQIIASTKKPVVVINYITHNNDIIYIPEGFRFDEFVKKNSSVVEIYFQPMDNREPLPKDLRRHRGMKYYPEPVWSYRIYNSTHSGCVDLTAMDDLQKKIDSILNGE"
value_observed = "not soluble"


###

# MEASUREMENT_DESCRIPTION: soluble on expression in E. coli; label from the status in PepcDB or PDB records
MEASUREMENT_LABEL: soluble on expression in E. coli

[[record]]
sequence = "HQRWHKKASVLIYGAGSSGRQLATALSQGPEYHAVAFIDDYKALQGQIIQGIPVYSPEEISHVVERKTVQKILLAIPSASRARRKQVLAKIDCLGIQVLTIPGMADIVEGKAKLEEFKDVGVEDLLGRDSVEPKPELMNADIAD"
value_observed = "not soluble"

[[record]]
sequence = "MGSDKIHHHHHHMSQTLLALYGLKWNPFSADLPIAAVSVPPKVEDFCWRIEHALVREGGFALIQGDPGTGKSVILRLLAERLSRLPDLTVGAIHHPQSNLADFYRELGDIFAVSLKPSNRWGGFKALRERWLAHLEATRRRPVLLIDEAQEMNAPVLCELRLLSSARFDSQSLLSVLLAGDARLTEKLRREELVPLGSRIRVRLHTESASRNELLGCLEHLMTEAGNAGLMTAGLCQTLCDHAMGNYRVLTQMAAELLAAATQRQLDQLDEKLFLELYGPAQQPARRKAAH"
value_observed = "not soluble"

[[record]]
sequence = "MHIVIVGAGAVGGFFGGLLHESGTKVTFVARGKSLDALQRRGMRLHDASGVRDIRVPVVEDLSHVPDADVVILATKTLGSVDVPKNLPKSAVLVTTQNSVEMPHIAVEALGVDRVIPGVVRSFLTKRGPAEAEFSGGIFTFTFGCMSEATRGIVDKLAHVLDRAGIEPVVHPAIMTDIWFKAMFVTCFGALGALVNQPLGVVRTTYRDDFKALINEVVTAGQAHGVDFPEDVVDRVLAFADAQPKGATSSMQRDLANGLPSELDAQAGAVVRMAQRVGVDARLHHLVGNVLSHKHSD"
value_observed = "soluble"

[[record]]
sequence = "MEEELQHSHCVNCVSRRCMTRPEPGISCDLIGCPLVCGAVFHSCKADEHRLLCPFERVPCLNSDFGCPFTMARNKVAEHLEMCPASV"
value_observed = "soluble"

[[record]]
sequence = "MGSDKIHHHHHHVRVNVKSHGPRATFPAAPCLHRNPKVKLRLFPQEPAGLHLLSQMARQIVLATATLAEILGVPATEHNRLVEDMHDHEAKSAELHFALLTHMRTSFVNPLPREDMYALSRYLNEAMEKLDAAAELVALYKLERLPRRAADQLEIISRQAELTVDAMRQLNNLDDLEDYWIEILRLAKRAERTHRVWVADMIKDMKWAQYARNRDIANQLVEVTKDMRRIATQVGSIIVKES"
value_observed = "not soluble"

[[record]]
sequence = "MSIFPTRDSRDLSSRRRSLIDWEFPQMALVPLDQVFDWAERSRQSLHDDIVNMHRNLFSLEPFTAMDNAFESVMKEMSAIQPREFHPELEYTQPGELDFLKDAYEVGKDGRLHFKVYFNVKNFKAEEITIKADKNKLVVRAQKSVACGDAAMSESVGRSIPLPPSVDRNHIQATITTDDVLVIEAPVNEPNYKAIKLSPEKGLAIQPSEVQERQLAVKNKEGLEIVTAEDGSKKIHLELKVDPHFAPKDVKVWAKGNKVYVHGVTGKEEKTENASHSEHREFYKAFVTPEVVDASKTQAEIVDGLMVVEAPLFK"
value_observed = "soluble"

